- assay.target: cynomolgus IL-36R on BaF/3 cells (cynomolgus)
- assay.details: cell-based or functional assay
Catalogue of IC90 pNFκB, trun-IL-36g, BaF/3 cynomolgus IL-36R cells readings, one per entry.
Express your answer in nM, writing the number without its unit.

Some entries whose results are on file:
binder | unit.name | reported
Mouse 78C8 (antibody 78C8) (antibody, V domains shown) VH: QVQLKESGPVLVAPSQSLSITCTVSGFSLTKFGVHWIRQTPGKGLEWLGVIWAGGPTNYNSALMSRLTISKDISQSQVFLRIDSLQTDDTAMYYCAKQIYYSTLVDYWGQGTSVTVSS VL: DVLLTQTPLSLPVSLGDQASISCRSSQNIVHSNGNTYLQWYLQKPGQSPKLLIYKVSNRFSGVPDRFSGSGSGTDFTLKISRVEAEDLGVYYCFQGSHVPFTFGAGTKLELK | nM | 1.5
Mouse 81B4 (antibody 81B4) (antibody, V domains shown) VH: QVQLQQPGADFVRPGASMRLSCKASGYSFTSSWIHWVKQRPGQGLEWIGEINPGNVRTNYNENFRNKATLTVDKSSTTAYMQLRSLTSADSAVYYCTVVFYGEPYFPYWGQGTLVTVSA VL: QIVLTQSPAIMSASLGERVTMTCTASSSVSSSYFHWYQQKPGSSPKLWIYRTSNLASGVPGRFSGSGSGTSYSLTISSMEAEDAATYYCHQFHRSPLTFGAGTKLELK | nM | 5.1

We next turn to a different binder, shown below.
What value of IC90 pNFκB, trun-IL-36g, BaF/3 cynomolgus IL-36R cells has been recorded for this entry: Mouse 81A1 (antibody 81A1) (antibody, V domains shown) VH: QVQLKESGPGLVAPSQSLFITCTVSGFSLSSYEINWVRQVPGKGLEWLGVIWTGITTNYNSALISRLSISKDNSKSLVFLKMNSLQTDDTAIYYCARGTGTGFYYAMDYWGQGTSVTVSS VL: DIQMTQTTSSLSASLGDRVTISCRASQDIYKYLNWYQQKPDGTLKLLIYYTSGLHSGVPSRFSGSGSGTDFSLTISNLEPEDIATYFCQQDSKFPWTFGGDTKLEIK
1
